condition-context: in methanol, 298.15 K

>  <sample-smiles>
N[C@@H](C(=O)N[C@@H]1C(=O)N2C(C(=O)O)=C(Cl)CS[C@H]12)c1ccccc1.O

>  <solubility (mole fraction)>
0.000145

$$$$

----------
condition-context: in methanol, 303.15 K
measured-endpoint: solubility (mole fraction)

>  <sample-smiles>
N[C@@H](C(=O)N[C@@H]1C(=O)N2C(C(=O)O)=C(Cl)CS[C@H]12)c1ccccc1.O

>  <reported-result>
0.000163

$$$$

----------
condition-context: in methanol, 283.15 K
measured-endpoint: solubility (mole fraction)

>  <sample-smiles>
N[C@@H](C(=O)N[C@@H]1C(=O)N2C(C(=O)O)=C(Cl)CS[C@H]12)c1ccccc1.O

>  <reported-result>
0.000101

$$$$

----------
condition-context: in methanol, 293.15 K

>  <sample-smiles>
N[C@@H](C(=O)N[C@@H]1C(=O)N2C(C(=O)O)=C(Cl)CS[C@H]12)c1ccccc1.O

>  <solubility (mole fraction)>
0.000129

$$$$

----------
condition-context: in acetone, 308.15 K

>  <sample-smiles>
N[C@@H](C(=O)N[C@@H]1C(=O)N2C(C(=O)O)=C(Cl)CS[C@H]12)c1ccccc1.O

>  <solubility (mole fraction)>
8.57e-05

$$$$

----------
condition-context: in acetone, 288.15 K

>  <sample-smiles>
N[C@@H](C(=O)N[C@@H]1C(=O)N2C(C(=O)O)=C(Cl)CS[C@H]12)c1ccccc1.O

>  <solubility (mole fraction)>
3.43e-05

$$$$

----------
condition-context: in water, 303.15 K

>  <sample-smiles>
N[C@@H](C(=O)N[C@@H]1C(=O)N2C(C(=O)O)=C(Cl)CS[C@H]12)c1ccccc1.O

>  <solubility (mole fraction)>
0.000511

$$$$

----------
condition-context: in acetone, 313.15 K
measured-endpoint: solubility (mole fraction)

>  <sample-smiles>
N[C@@H](C(=O)N[C@@H]1C(=O)N2C(C(=O)O)=C(Cl)CS[C@H]12)c1ccccc1.O

>  <measured-endpoint>
solubility (mole fraction)

>  <reported-result>
0.000108

$$$$

----------
condition-context: in water, 278.15 K
measured-endpoint: solubility (mole fraction)

>  <sample-smiles>
N[C@@H](C(=O)N[C@@H]1C(=O)N2C(C(=O)O)=C(Cl)CS[C@H]12)c1ccccc1.O

>  <measured-endpoint>
solubility (mole fraction)

>  <reported-result>
0.000387

$$$$

----------
condition-context: in ethanol, 313.15 K
measured-endpoint: solubility (mole fraction)

>  <sample-smiles>
N[C@@H](C(=O)N[C@@H]1C(=O)N2C(C(=O)O)=C(Cl)CS[C@H]12)c1ccccc1.O

>  <reported-result>
9.55e-05

$$$$

----------
condition-context: in ethanol, 278.15 K

>  <sample-smiles>
N[C@@H](C(=O)N[C@@H]1C(=O)N2C(C(=O)O)=C(Cl)CS[C@H]12)c1ccccc1.O

>  <solubility (mole fraction)>
2.36e-05

$$$$

----------
condition-context: in acetone, 283.15 K

>  <sample-smiles>
N[C@@H](C(=O)N[C@@H]1C(=O)N2C(C(=O)O)=C(Cl)CS[C@H]12)c1ccccc1.O

>  <solubility (mole fraction)>
2.67e-05

$$$$

----------
condition-context: in ethanol, 288.15 K

>  <sample-smiles>
N[C@@H](C(=O)N[C@@H]1C(=O)N2C(C(=O)O)=C(Cl)CS[C@H]12)c1ccccc1.O

>  <solubility (mole fraction)>
3.86e-05

$$$$

----------
condition-context: in water, 288.15 K
measured-endpoint: solubility (mole fraction)

>  <sample-smiles>
N[C@@H](C(=O)N[C@@H]1C(=O)N2C(C(=O)O)=C(Cl)CS[C@H]12)c1ccccc1.O

>  <reported-result>
0.000417

$$$$

----------
condition-context: in ethanol, 283.15 K

>  <sample-smiles>
N[C@@H](C(=O)N[C@@H]1C(=O)N2C(C(=O)O)=C(Cl)CS[C@H]12)c1ccccc1.O

>  <solubility (mole fraction)>
3.05e-05

$$$$

----------
condition-context: in methanol, 313.15 K

>  <sample-smiles>
N[C@@H](C(=O)N[C@@H]1C(=O)N2C(C(=O)O)=C(Cl)CS[C@H]12)c1ccccc1.O

>  <solubility (mole fraction)>
0.000214

$$$$

----------
condition-context: in acetone, 303.15 K

>  <sample-smiles>
N[C@@H](C(=O)N[C@@H]1C(=O)N2C(C(=O)O)=C(Cl)CS[C@H]12)c1ccccc1.O

>  <solubility (mole fraction)>
6.84e-05

$$$$

----------
condition-context: in methanol, 308.15 K
measured-endpoint: solubility (mole fraction)

>  <sample-smiles>
N[C@@H](C(=O)N[C@@H]1C(=O)N2C(C(=O)O)=C(Cl)CS[C@H]12)c1ccccc1.O

>  <measured-endpoint>
solubility (mole fraction)

>  <reported-result>
0.000186

$$$$

----------
condition-context: in ethanol, 298.15 K

>  <sample-smiles>
N[C@@H](C(=O)N[C@@H]1C(=O)N2C(C(=O)O)=C(Cl)CS[C@H]12)c1ccccc1.O

>  <solubility (mole fraction)>
5.71e-05

$$$$

----------
condition-context: in ethanol, 303.15 K
measured-endpoint: solubility (mole fraction)

>  <sample-smiles>
N[C@@H](C(=O)N[C@@H]1C(=O)N2C(C(=O)O)=C(Cl)CS[C@H]12)c1ccccc1.O

>  <reported-result>
6.72e-05

$$$$

----------
condition-context: in water, 313.15 K

>  <sample-smiles>
N[C@@H](C(=O)N[C@@H]1C(=O)N2C(C(=O)O)=C(Cl)CS[C@H]12)c1ccccc1.O

>  <solubility (mole fraction)>
0.000602

$$$$

----------
condition-context: in ethanol, 293.15 K

>  <sample-smiles>
N[C@@H](C(=O)N[C@@H]1C(=O)N2C(C(=O)O)=C(Cl)CS[C@H]12)c1ccccc1.O

>  <solubility (mole fraction)>
4.76e-05

$$$$

src = BigSolDB 2.1
